Target: 3-oxo-5-alpha-steroid 4-dehydrogenase 2 (Homo sapiens)
Sequence (P31213 whole entry): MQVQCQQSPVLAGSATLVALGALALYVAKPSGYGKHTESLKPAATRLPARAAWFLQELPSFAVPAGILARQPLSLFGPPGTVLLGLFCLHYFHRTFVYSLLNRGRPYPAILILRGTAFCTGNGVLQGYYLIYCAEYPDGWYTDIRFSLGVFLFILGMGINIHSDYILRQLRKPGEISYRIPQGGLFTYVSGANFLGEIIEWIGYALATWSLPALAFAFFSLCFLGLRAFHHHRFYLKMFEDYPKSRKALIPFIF
Assay: Compound was tested for the inhibition of Steroid 5-alpha-reductase type 2 of human prostates
Assay type: tissue-based, Prostate gland
parameter: IC50 (µM)

[I] CC(C)N(C(=O)COc1ccc(-c2ccc(C(=O)O)cc2C(F)(F)F)cc1)C(C)C
[II] CC(C)N(C(=O)COc1ccc(-c2ccc(C(=O)O)cc2)cc1)C(C)C
Dear colleague, could you let me know whether I or II has the lower recorded IC50? Thanks. Identify your selection by its label.
I
(I: 0.57 µM, II: 0.83 µM)
